- Test system: MCF7
- test_protocol: normalised growth rate inhibition (GR value) relative to DMSO control (GR (1 = untreated growth, 0 = cytostasis, <0 = cytotoxic)); higher = less growth inhibition
- test_context: 10 µM; 72 h
Each item that follows carries a reported normalised growth rate inhibition.
Please give the numeric answer without any surrounding text.

Query: Could you tell me which normalised growth rate inhibition is on file for "Cc1[nH]c(/C=C2\C(=O)Nc3ccc(S(=O)(=O)Cc4c(Cl)cccc4Cl)cc32)c(C)c1C(=O)N1CCC[C@@H]1CN1CCCC1" ?
Reply: 0.665

Query: Could you tell me which normalised growth rate inhibition is on file for "Cn1cc(C2=C(c3cn(C4CCN(Cc5ccccn5)CC4)c4ccccc34)C(=O)NC2=O)c2ccccc21" ?
Reply: 0.693

Query: Could you tell me which normalised growth rate inhibition is on file for "Cc1cnc(Nc2ccc(OCCN3CCCC3)cc2)nc1Nc1cccc(S(=O)(=O)NC(C)(C)C)c1" ?
Reply: -0.272

Query: Could you tell me which normalised growth rate inhibition is on file for "COCC(=O)NC/C=C/c1ccc2ncnc(Nc3ccc(Oc4ccc(C)nc4)c(C)c3)c2c1" ?
Reply: 0.499

Query: Could you tell me which normalised growth rate inhibition is on file for "Cn1cnc2c(F)c(Nc3ccc(Br)cc3Cl)c(C(=O)NOCCO)cc21" ?
Reply: 0.524

Query: Could you tell me which normalised growth rate inhibition is on file for "C#Cc1cccc(Nc2ncnc3cc(OCCOC)c(OCCOC)cc23)c1" ?
Reply: 0.927

Query: Could you tell me which normalised growth rate inhibition is on file for "C[C@@H](N)c1ccc(C(=O)Nc2ccnc3[nH]ccc23)cc1" ?
Reply: -0.243

Query: Could you tell me which normalised growth rate inhibition is on file for "CN(C)C/C=C/C(=O)Nc1cc2c(Nc3ccc(F)c(Cl)c3)ncnc2cc1O[C@H]1CCOC1" ?
Reply: -0.239

----------
- Tested on: MCF7
- test_protocol: normalised growth rate inhibition (GR value) relative to DMSO control (GR (1 = untreated growth, 0 = cytostasis, <0 = cytotoxic)); higher = less growth inhibition
- test_context: 3.33 µM; 72 h
Assign label 1 whenever normalised growth rate inhibition does not fall below -0.03; assign label 0 whenever it does.

Examples with answers:
OCCCNc1cc(-c2ccnc(Nc3cccc(Cl)c3)n2)ccn1: label 0
CC[C@@H]1C(=O)N(C)c2cnc(Nc3ccc(C(=O)NC4CCN(C)CC4)cc3OC)nc2N1C1CCCC1 [BI-2536]: label 1
CC(=O)c1c(C)c2cnc(Nc3ccc(N4CCNCC4)cn3)nc2n(C2CCCC2)c1=O [palbociclib]: label 1
Nc1ccc(-c2ccc3ncc4ccc(=O)n(-c5cccc(C(F)(F)F)c5)c4c3c2)cn1 [torin-2]: label 0
Cn1cc(C2=C(c3cn(C4CCN(Cc5ccccn5)CC4)c4ccccc34)C(=O)NC2=O)c2ccccc21 [enzastaurin]: label 1

Query: Would you say CCC(=O)N1CCN(c2ccc(-n3c(=O)ccc4cnc5ccc(-c6cnc7ccccc7c6)cc5c43)cc2C(F)(F)F)CC1 [torin-1] shows normalised growth rate inhibition at minimum -0.03?
Reply: label 1

Query: Would you say O=C1c2c(O)ccc(O)c2C(=O)c2c(NCCNCCO)ccc(NCCNCCO)c21 [mitoxantrone] shows normalised growth rate inhibition at minimum -0.03?
Reply: label 0

Query: Would you say COc1ccc(-c2ccc3c(N4CCOC[C@@H]4C)nc(N4CCOC[C@@H]4C)nc3n2)cc1CO [AZD-8055] shows normalised growth rate inhibition at minimum -0.03?
Reply: label 0
